B1: PRPH (parent)
chain: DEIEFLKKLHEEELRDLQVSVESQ

Variants of: B1
Assay: protein stability index of a GFP-peptide fusion (GPS, HEK-293T) (PSI 1-6); higher = more stable;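 note: lentivirally expressed fusions sorted by FACS into six bins by GFP to DsRed ratio, PSI derived from sequencing read proportions per bin multiplied by bin number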
Settings: c terminus: a fixed tail appended

- sequenceChange: "V21K"
  protein stability index: 5.06
- sequenceChange: "S20Q"
  protein stability index: 4.86
- sequenceChange: "D1W"
  protein stability index: 3.97
- sequenceChange: "E11K"
  protein stability index: 4.92
- sequenceChange: "S23G"
  protein stability index: 5.13
- sequenceChange: "K8A"
  protein stability index: 5.1
- sequenceChange: "I3K"
  protein stability index: 5.18
- sequenceChange: "D16Y"
  protein stability index: 3.49
- sequenceChange: "E12W"
  protein stability index: 4.12
- sequenceChange: "Q24C"
  protein stability index: 3.37
- sequenceChange: "K7L"
  protein stability index: 2.37
- sequenceChange: "H10G"
  protein stability index: 4.64
- sequenceChange: "L6T"
  protein stability index: 5.13
- sequenceChange: "E11I"
  protein stability index: 4.01
- sequenceChange: "D16S"
  protein stability index: 5.14
- sequenceChange: "V19Y"
  protein stability index: 4.56
- sequenceChange: "S20T"
  protein stability index: 4.87
- sequenceChange: "K7D"
  protein stability index: 5.06
- sequenceChange: "V21L"
  protein stability index: 4.71
- sequenceChange: "I3T"
  protein stability index: 5.25
- sequenceChange: "Q24H"
  protein stability index: 4.52
- sequenceChange: "E2Q"
  protein stability index: 3.73
